The measurements presented in this section are drawn from patent US20090325992A1.

# Tested on: CHL/IU (cell line derived from a Chinese hamster lung)
# Test Details: Phospholipidosis detecting system using fluorescent labeling phospholipid analog (NBD-PE)
# Assay type: cell-based
# Reported Conditions: CHL/IU cells, compound dose 200 μM, about 48 hours, relative to NBD-PE control
# Rate of increase of phospholipid accumulation (%) (compound dose: 200 μM) values compiled below
Endpoint: Rate of increase of phospholipid accumulation (%) (compound dose: 200 μM)

>  <Compound>
CCC(CC)N1CCC2(CCN(CCCn3ccnc3CN(CCCC(=O)O)Cc3ncc[nH]3)C2)CC1 [Example 25(1)]

>  <System Under Test>
CHL/IU (cell line derived from a Chinese hamster lung)

>  <Reported Value>
16

$$$$
>  <Compound>
O=C(O)COc1ccc(CN(Cc2ncc[nH]2)Cc2nccn2CCCN2CCC3(CCN(C4CCCCC4)CC3)C2)cc1 [Example 41(6)]

>  <System Under Test>
CHL/IU (cell line derived from a Chinese hamster lung)

>  <Reported Value>
16

$$$$
>  <Compound>
CCC(CC)N1CCC2(CCN(CCCn3ccnc3CN(Cc3cccc(OCC(=O)O)c3)Cc3ncc[nH]3)C2)CC1 [Example 43(1)]

>  <System Under Test>
CHL/IU (cell line derived from a Chinese hamster lung)

>  <Reported Value>
14

$$$$
>  <Compound>
CC(C)CN1CCC2(CC1)CCN(CCCn1ccnc1CN(Cc1ccc(CC(=O)O)cc1)Cc1ncc[nH]1)C2 [Example 22(4)]

>  <System Under Test>
CHL/IU (cell line derived from a Chinese hamster lung)

>  <Reported Value>
16

$$$$
>  <Compound>
O=C(O)COc1cccc(CN(Cc2ncc[nH]2)Cc2nccn2CCCN2CCC3(CCN(C4CCCCC4)CC3)C2)c1 [Example 41(7)]

>  <System Under Test>
CHL/IU (cell line derived from a Chinese hamster lung)

>  <Reported Value>
21

$$$$
>  <Compound>
CCC(CC)N1CCC2(CCN(CCCn3ccnc3CN(Cc3ccc(OCC(=O)O)cc3)Cc3ncc[nH]3)C2)CC1 [Example 43]

>  <System Under Test>
CHL/IU (cell line derived from a Chinese hamster lung)

>  <Reported Value>
16

$$$$

* * *

# Test Details: Measurement of maximum plasma level (Cmax) and stationary state distribution volume (Vss)
# Reported Conditions: male, Crl:CD(SD), rat, iv, 1 mg/kg
Endpoint: Vd (L/kg)

>  <Molecule Smiles>
CCC(CC)N1CCC2(CCN(CCCn3ccnc3CN(CCCC(=O)O)Cc3ncc[nH]3)C2)CC1

>  <Measurement Unit>
L/kg

>  <Reported Value>
0.36

$$$$
>  <Molecule Smiles>
CC(C)CN1CCC2(CC1)CCN(CCCn1ccnc1CN(Cc1ccc(CC(=O)O)cc1)Cc1ncc[nH]1)C2

>  <Measurement Unit>
L/kg

>  <Reported Value>
1.1

$$$$
>  <Molecule Smiles>
CCC(CC)N1CCC2(CCN(CCCn3ccnc3CN(Cc3ccc(OCC(=O)O)cc3)Cc3ncc[nH]3)C2)CC1

>  <Measurement Unit>
L/kg

>  <Reported Value>
0.65

$$$$
>  <Molecule Smiles>
CCC(CC)N1CCC2(CCN(CCCn3ccnc3CN(Cc3cccc(OCC(=O)O)c3)Cc3ncc[nH]3)C2)CC1

>  <Measurement Unit>
L/kg

>  <Reported Value>
0.42

$$$$

* * *

# System Under Test: CXCR4 (human T cell strain CEM cells) (Homo sapiens, UniProt P61073)
# Construct: a human T cell strain in which CXCR4 is known to be expressed; endogenous in cells
# Sequence (P61073 whole entry): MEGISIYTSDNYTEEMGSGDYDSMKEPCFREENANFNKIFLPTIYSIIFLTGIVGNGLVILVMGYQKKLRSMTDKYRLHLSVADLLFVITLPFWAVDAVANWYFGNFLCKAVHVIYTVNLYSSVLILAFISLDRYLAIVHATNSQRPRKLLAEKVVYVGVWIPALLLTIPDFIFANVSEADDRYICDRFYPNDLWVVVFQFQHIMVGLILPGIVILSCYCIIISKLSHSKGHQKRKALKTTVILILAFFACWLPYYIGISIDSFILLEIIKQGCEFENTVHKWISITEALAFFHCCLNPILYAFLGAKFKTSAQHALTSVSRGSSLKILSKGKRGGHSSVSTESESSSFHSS
# Test Details: Inhibition of binding human SDF-1 to CEM cells (125I-SDF-1)
# Reported Conditions: 4° C., 60 minutes
pIC50: −log10 of the molar value.
Endpoint: pIC50

>  <Molecule Smiles>
O=C(O)COc1cccc(CN(Cc2ncc[nH]2)Cc2nccn2CCCN2CCC3(CCN(C4CCCCC4)CC3)C2)c1

>  <System Under Test>
CXCR4 (human T cell strain CEM cells) (Homo sapiens, UniProt P61073)

>  <Modifier Sign>
=

>  <Reported Value>
8.35

$$$$
>  <Molecule Smiles>
O=C(O)COc1ccc(CN(Cc2ncc[nH]2)Cc2nccn2CCCN2CCC3(CCN(C4CCCCC4)CC3)C2)cc1

>  <System Under Test>
CXCR4 (human T cell strain CEM cells) (Homo sapiens, UniProt P61073)

>  <Modifier Sign>
=

>  <Reported Value>
8.36

$$$$
>  <Molecule Smiles>
CCC(CC)N1CCC2(CCN(CCCn3ccnc3CN(Cc3ccc(OCC(=O)O)cc3)Cc3ncc[nH]3)C2)CC1

>  <System Under Test>
CXCR4 (human T cell strain CEM cells) (Homo sapiens, UniProt P61073)

>  <Modifier Sign>
=

>  <Reported Value>
8.40

$$$$
>  <Molecule Smiles>
CCC(CC)N1CCC2(CCN(CCCn3ccnc3CN(Cc3cccc(SCC(=O)O)c3)Cc3ncc[nH]3)C2)CC1

>  <System Under Test>
CXCR4 (human T cell strain CEM cells) (Homo sapiens, UniProt P61073)

>  <Modifier Sign>
=

>  <Reported Value>
8.03

$$$$
>  <Molecule Smiles>
CCOC(=O)COc1ccc(CN(Cc2ncc[nH]2)Cc2nccn2CCCN2CCC3(CCN(C4CCCCC4)CC3)C2)cc1

>  <System Under Test>
CXCR4 (human T cell strain CEM cells) (Homo sapiens, UniProt P61073)

>  <Modifier Sign>
≥

>  <Reported Value>
8.52

$$$$
>  <Molecule Smiles>
CCOC(=O)CCCn1ccnc1CN(C)Cc1nccn1CCCN1CCC2(CCN(CC(C)C)CC2)C1

>  <System Under Test>
CXCR4 (human T cell strain CEM cells) (Homo sapiens, UniProt P61073)

>  <Modifier Sign>
=

>  <Reported Value>
8.37

$$$$
>  <Molecule Smiles>
CCOC(=O)CCc1ccc(CN(Cc2ncc[nH]2)Cc2nccn2CCCN2CCC3(CCN(C(CC)CC)CC3)C2)s1

>  <System Under Test>
CXCR4 (human T cell strain CEM cells) (Homo sapiens, UniProt P61073)

>  <Modifier Sign>
=

>  <Reported Value>
8.36

$$$$
>  <Molecule Smiles>
CCC(CC)N1CCC2(CCN(CCCn3ccnc3CN(Cc3ccc4cc(OCC(=O)O)ccc4c3)Cc3ncc[nH]3)C2)CC1

>  <System Under Test>
CXCR4 (human T cell strain CEM cells) (Homo sapiens, UniProt P61073)

>  <Modifier Sign>
=

>  <Reported Value>
7.87

$$$$
>  <Molecule Smiles>
CCOC(=O)COc1ccc(CN(Cc2ncc[nH]2)Cc2nccn2CCCN2CCC3(CCN(C(CC)CC)CC3)C2)cc1

>  <System Under Test>
CXCR4 (human T cell strain CEM cells) (Homo sapiens, UniProt P61073)

>  <Modifier Sign>
=

>  <Reported Value>
8.52

$$$$
>  <Molecule Smiles>
COC(=O)Cc1ccc(CN(Cc2ncc[nH]2)Cc2nccn2CCCN2CCC3(CCN(CC(C)C)CC3)C2)cc1

>  <System Under Test>
CXCR4 (human T cell strain CEM cells) (Homo sapiens, UniProt P61073)

>  <Modifier Sign>
=

>  <Reported Value>
8.13

$$$$
>  <Molecule Smiles>
CCC(CC)N1CCC2(CCN(CCCn3ccnc3CN(CCCC(=O)O)Cc3ncc[nH]3)C2)CC1

>  <System Under Test>
CXCR4 (human T cell strain CEM cells) (Homo sapiens, UniProt P61073)

>  <Modifier Sign>
=

>  <Reported Value>
8.18

$$$$
>  <Molecule Smiles>
CC(C)CN1CCC2(CC1)CCN(CCCn1ccnc1CN(Cc1ccc(CC(=O)O)cc1)Cc1ncc[nH]1)C2

>  <System Under Test>
CXCR4 (human T cell strain CEM cells) (Homo sapiens, UniProt P61073)

>  <Modifier Sign>
=

>  <Reported Value>
7.68

$$$$
>  <Molecule Smiles>
CCOC(=O)COc1cccc(CN(Cc2ncc[nH]2)Cc2nccn2CCCN2CCC3(CCN(C(CC)CC)CC3)C2)c1

>  <System Under Test>
CXCR4 (human T cell strain CEM cells) (Homo sapiens, UniProt P61073)

>  <Modifier Sign>
≥

>  <Reported Value>
8.52

$$$$
>  <Molecule Smiles>
CCC(CC)N1CCC2(CCN(CCCn3ccnc3CN(Cc3cccc(OCC(=O)O)c3)Cc3ncc[nH]3)C2)CC1

>  <System Under Test>
CXCR4 (human T cell strain CEM cells) (Homo sapiens, UniProt P61073)

>  <Modifier Sign>
=

>  <Reported Value>
8.20

$$$$
>  <Molecule Smiles>
CCOC(=O)COc1cccc(CN(Cc2ncc[nH]2)Cc2nccn2CCCN2CCC3(CCN(C4CCCCC4)CC3)C2)c1

>  <System Under Test>
CXCR4 (human T cell strain CEM cells) (Homo sapiens, UniProt P61073)

>  <Modifier Sign>
≥

>  <Reported Value>
8.52

$$$$
